- measured on: T1, B7-H4ECD his-tagged protein (Sinobiologics) (human, UniProt Q7Z7D3 25-259)
- T1 construct: Bought protein; Result paragraph calls the target human B7-H4; also called B7-H4 extracellular domain; not shown: his tag
- T1 sequence: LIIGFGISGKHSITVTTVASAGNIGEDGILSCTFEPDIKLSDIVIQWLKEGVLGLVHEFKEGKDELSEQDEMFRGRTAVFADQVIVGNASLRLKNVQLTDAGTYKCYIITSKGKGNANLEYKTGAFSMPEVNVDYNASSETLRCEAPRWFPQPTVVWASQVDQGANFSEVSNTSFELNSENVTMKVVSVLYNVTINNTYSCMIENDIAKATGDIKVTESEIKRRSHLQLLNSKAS
- experimental protocol: ELISA, B7-H4ECD his-tagged protein coated
# key: entry, value: EC50

Example cases with answers are listed next.
Dear colleague, please send me the reported EC50 for humanized 6H3 variant 3 (antibody, V domains shown, also called V3; H2B L1B) VH: EVQLVQSGAEMKKPGASVKVSCKASGYTFTDYYMNWVRQAPGQSLEWMGVINPYNGDTTYNQKFQGRVTVAVDKSATTAYMELSSLRSEDTAVYYCARYPESTYWGQGTLVTVSS VL: DVVMTQSPLSLPVTLGQPASISCRSSQSLVHINGNTYLHWYQQRPGQSPRVLIYKVSNRFSGVPDRFSGSGSGTDFTLKISRVEAEDVGVYFCSQSTHVPLTFGGGTKVEIK when you can.
1.19 nM

Dear colleague, please send me the reported EC50 for humanized 6H3 variant 11 (antibody, V domains shown, also called V11; H2C L2B) VH: EVQLVQSGAEMKKPGASVKVSCKASGYTFTDYYMNWVRQAPGQSLEWIGVINPYNGDTTYNQKFQGRVTVTVDKSATTAYMELSSLRSEDTAVYYCARYPESTYWGQGTLVTVSS VL: DIVMTQTPLSLPVTLGQPASISCRSSQSLVHINGNTYLHWYQQRPGQSPRVLIYKVSNRFSGVPDRFSGSGSGTDFTLKISRVEAEDVGVYFCSQSTHVPLTFGQGTKVEIK when you can.
0.97 nM

Dear colleague, please send me the reported EC50 for humanized 6H3 variant 9 (antibody, V domains shown, also called V9; 6H3 V9) VH: EVQLVQSGAEVKKPGASVKVSCKASGYTFTDYYMNWVRQAPGQGLEWIGIINPYNGDTSYNQKFKGRVTLTVDKSTSTAYMELSSLRSEDTAVYYCARYPESTYWGQGTLVTVSS VL: DIVMTQTPLSLPVTLGQPASISCRSSQSLVHINGNTYLHWYQQRPGQSPRVLIYKVSNRFSGVPDRFSGSGSGTDFTLKISRVEAEDVGVYFCSQSTHVPLTFGQGTKVEIK when you can.
0.75 nM

Dear colleague, please send me the reported EC50 for humanized 6H3 variant 5 (antibody, V domains shown, also called V5; Variant 5 (antibody)) VH: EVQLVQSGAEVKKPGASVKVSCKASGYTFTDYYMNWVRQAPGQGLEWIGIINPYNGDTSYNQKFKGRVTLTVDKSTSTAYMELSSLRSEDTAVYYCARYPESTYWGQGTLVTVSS VL: DVVMTQSPLSLPVTLGQPASISCRSSQSLVHINGNTYLHWYLQRPGQSPKVLIYKVSNRFSGVPDRFSGSGSGTDFTLKISRVEAEDVGVYFCSQSTHVPLTFGGGTKVEIK when you can.
0.95 nM

Next up:
Dear colleague, please send me the reported EC50 for humanized 6H3 variant 12 (antibody, V domains shown, also called V12; 6H3 V12) VH: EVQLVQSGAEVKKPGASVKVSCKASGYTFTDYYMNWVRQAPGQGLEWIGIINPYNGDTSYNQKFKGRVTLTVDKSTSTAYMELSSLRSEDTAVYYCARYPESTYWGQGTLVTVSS VL: DIVMTQTPLSLPVTLGQPASISCRSSQSLVHINGNTYLHWYLQRPGQSPKVLIYKVSNRFSGVPDRFSGSGSGTDFTLKISRVEAEDVGVYFCSQSTHVPLTFGAGTKVEIK when you can.
0.78 nM
